ASSAYED TARGET: human 5-HT1A receptor (Homo sapiens, UniProt P08908)
Construct: expressed in transfected cells; host or cells: Chinese hamster ovary cells (5-HT1A.CHO), membranes
Sequence (P08908 whole entry): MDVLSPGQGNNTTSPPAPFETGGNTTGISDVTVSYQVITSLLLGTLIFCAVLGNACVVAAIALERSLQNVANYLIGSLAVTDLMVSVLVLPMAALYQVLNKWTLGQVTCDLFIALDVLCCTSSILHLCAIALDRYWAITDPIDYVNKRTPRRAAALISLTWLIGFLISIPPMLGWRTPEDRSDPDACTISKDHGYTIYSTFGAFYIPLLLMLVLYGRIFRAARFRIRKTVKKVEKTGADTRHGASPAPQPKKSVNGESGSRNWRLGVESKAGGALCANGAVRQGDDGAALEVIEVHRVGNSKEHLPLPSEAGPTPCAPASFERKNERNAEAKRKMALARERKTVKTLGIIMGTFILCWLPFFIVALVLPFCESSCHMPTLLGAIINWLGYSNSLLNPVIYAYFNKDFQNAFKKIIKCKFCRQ
EXPERIMENT: [3H]8-OH-DPAT competition binding at human 5-HT1A receptor (5-HT1A.CHO cell membranes)
CONDITION INFO: [3H]8-OH-DPAT 1.5 nM, 30 minute incubation at room temperature
ASSAY READOUT: Ki (nM)
Could you give me the number in nM? Just the number is fine.

[in] Fill blank: measured Ki of the compound Fc1ccc2[nH]cc([C@H]3CC[C@@H](NCC4CNc5ccccc5O4)CC3)c2c1 (stereo partly drawn) [1 (cis)] is ____.
[out] 2430
